- SYSTEM: GDP-bound KRAS wild-type protein (Homo sapiens)
- Sequence (P01116 1-188 isoform P01116-2): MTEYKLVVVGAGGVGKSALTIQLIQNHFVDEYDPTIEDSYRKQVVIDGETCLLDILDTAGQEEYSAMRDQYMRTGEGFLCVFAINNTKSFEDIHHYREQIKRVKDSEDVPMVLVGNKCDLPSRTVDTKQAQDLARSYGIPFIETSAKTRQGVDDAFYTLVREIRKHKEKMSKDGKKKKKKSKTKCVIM
- PROCEDURE SUMMARY: Binding to KRAS by surface plasmon resonance (SPR), dissociation constant KD
- ASSAY CONTEXT: Single Cycle Kinetics, 1:1 binding model

{"columns": ["COMPOUND", "Kd"],
 "data": [
  ["CCCCCC[C@H]1C(=O)N[C@@H]([C@@H](C)CC)C(=O)N(C)CC(=O)N(C)[C@H]2C/C=C\\CCN(C2=O)[C@@H](Cc2ccc(C(F)(F)F)cc2)C(=O)N(C)CC(=O)N[C@@H](CCc2ccc3sccc3c2)C(=O)N2C[C@H](OCC)C[C@H]2C(=O)NC2(CCC2)C(=O)N(C)[C@@H](C2CCCC2)C(=O)N(C)[C@H](C(=O)N(C)C)CC(=O)N1C", "0.49 nM"],
  ["CCCOC[C@H]1C(=O)N[C@@H]([C@@H](C)CC)C(=O)N(C)CC(=O)N(C)[C@H]2C/C=C\\CCN(C2=O)[C@@H](Cc2ccc(C(F)(F)F)cc2)C(=O)N(C)CC(=O)N[C@@H](CCc2cc(F)c(C(F)(F)F)c(F)c2)C(=O)N2C[C@@H](C)C[C@H]2C(=O)NC2(CCC2)C(=O)N(C)[C@@H](C2CCCC2)C(=O)N(C)[C@H](C(=O)N(C)CCC)CC(=O)N1C", "0.13 nM"],
  ["CCO[C@@H]1C[C@H]2C(=O)NC3(CCC3)C(=O)N(C)[C@@H](C(CC)CC)C(=O)N(C)[C@H](C(=O)N(C)C)CC(=O)N(C)[C@@H](CC(C)C)C(=O)N[C@@H]([C@@H](C)CC)C(=O)N(C)CC(=O)N(C)[C@H]3C/C=C\\CCN(C3=O)[C@@H](Cc3ccc(C(F)(F)F)cc3)C(=O)N(C)CC(=O)N[C@@H](CCc3ccc(Cl)c(Cl)c3)C(=O)N2C1", "0.48 nM"],
  ["CCC[C@H]1C(=O)N[C@@H]([C@@H](C)CC)C(=O)N(C)CC(=O)N(C)[C@H]2C/C=C\\CCN(C2=O)[C@@H](Cc2ccc(C)cc2)C(=O)N(C)CC(=O)N[C@@H](CCc2ccc(C(F)(F)F)c(OC)c2)C(=O)N2C[C@H](C)C[C@H]2C(=O)NC2(CC(C)(C)C2)C(=O)N(C)[C@@H](C2CCCC2)C(=O)N(C)[C@H](C(=O)N(C)C)CC(=O)N1C", "0.15 nM"],
  ["CC[C@H](C)[C@@H]1NC(=O)[C@H](CC(C)C)N(C)C(=O)C[C@@H](C(=O)N2CCOCC2)N(C)C(=O)[C@H](C2CCCC2)N(C)C(=O)C2(CCCC2)NC(=O)[C@@H]2CCCN2C(=O)[C@H](CCc2ccc(C(F)(F)F)c(Cl)c2)NC(=O)CN(C)C(=O)[C@H](Cc2ccc(Cl)cc2)N2CCCC[C@@H](C2=O)N(C)C(=O)CN(C)C1=O", "0.066 nM"],
  ["CCCCCC[C@H]1C(=O)N[C@@H]([C@@H](C)CC)C(=O)N(C)CC(=O)N(C)[C@H]2C/C=C\\CCN(C2=O)[C@@H](Cc2ccc(C(F)(F)F)cc2)C(=O)N(C)CC(=O)N[C@@H](CCc2cc(F)c(C(F)(F)F)c(F)c2)C(=O)N2C[C@H](OCC)C[C@H]2C(=O)NC2(CCC2)C(=O)N(C)[C@@H](C(CC)CC)C(=O)N(C)[C@H](C(=O)N(C)C)CC(=O)N1C", "0.4 nM"]
]}

----------
Property: pKd; scope: individual molecules
- SYSTEM: GDP-bound KRAS wild-type protein (Homo sapiens)
- PROCEDURE SUMMARY: Binding to KRAS by surface plasmon resonance (SPR), dissociation constant KD
- ASSAY CONTEXT: 1:1 binding model
pKd: −log10 of the molar value. Where a SMILES comes first, the peptide text is derived from it. Bridges are numbered along the chain shown (N, C = ends). [ ]: non-standard residue; d: D form. The star is where a group is joined. hPhe(3-Cl-4-CF3) = N[C@@H](CCc1ccc(C(F)(F)F)c(Cl)c1)C(=O)O; NPrPhe(4-CF3) = CCCN[C@@H](Cc1ccc(C(F)(F)F)cc1)C(=O)O; 3Oxa8azabicyclo(3.2.1)octane = C1CC2COCC1N2*; NMeGly(cPent) = CN[C@H](C(=O)O)C1CCCC1; NMeD = CN[C@@H](CC(=O)O)C(=O)O; NMeL = CN[C@@H](CC(C)C)C(=O)O; NMeA = CN[C@@H](C)C(=O)O; Ac5c = NC1(C(=O)O)CCCC1; Aze = O=C(O)[C@@H]1CCN1; Sar = CNCC(=O)O

{"columns": ["MOLECULE", "SYSTEM", "pKd"],
 "data": [
  ["CCCN1C(=O)[C@@H]2CCN2C(=O)[C@H](C)N(C)C(=O)[C@H]([C@@H](C)CC)NC(=O)[C@H](CC(C)C)N(C)C(=O)C[C@@H](C(=O)N2C3CCC2COC3)N(C)C(=O)[C@H](C2CCCC2)N(C)C(=O)C2(CCCC2)NC(=O)[C@@H]2CCCN2C(=O)[C@H](CCc2ccc(C(F)(F)F)c(Cl)c2)NC(=O)CN(C)C(=O)[C@@H]1Cc1ccc(C(F)(F)F)cc1 [PP0182] ([NMeL]I[NMeA][Aze][NPrPhe(4-CF3)][Sar][hPhe(3-Cl-4-CF3)]P[Ac5c][NMeGly(cPent)][NMeD]-{3Oxa8azabicyclo(3.2.1)octane}; lactam N-11)", "GDP-bound KRAS wild-type protein (Homo sapiens)", 9.06],
  ["CCC[C@H]1C(=O)N[C@@H]([C@@H](C)CC)C(=O)N(C)CC(=O)N(C)[C@H]2C/C=C\\CCN(C2=O)[C@@H](Cc2ccc(C)cc2)C(=O)N(C)CC(=O)N[C@@H](CCc2cc(Cl)c3c(ccn3C)c2)C(=O)N2C[C@H](OCC)C[C@H]2C(=O)NC2(CC(C)(C)C2)C(=O)N(C)[C@@H](C2CCCC2)C(=O)N(C)[C@H](C(=O)N(C)C)CC(=O)N1C", "GDP-bound KRAS wild-type protein (Homo sapiens)", 9.00],
  ["CCC(CC)[C@H]1C(=O)N(C)[C@H](C(=O)N(C)C)CC(=O)N(C)[C@@H](COC)C(=O)N[C@@H]([C@@H](C)CC)C(=O)N(C)CC(=O)N(C)[C@H]2C/C=C\\CCN(C2=O)[C@@H](Cc2ccc(C)cc2)C(=O)N(C)CC(=O)N[C@@H](CCc2ccc(C(F)(F)F)c(OC)c2)C(=O)N2CCCC[C@H]2C(=O)NC2(CC(C)(C)C2)C(=O)N1C", "GDP-bound KRAS wild-type protein (Homo sapiens)", 8.96]
]}

----------
- SYSTEM: UniProt:P01116
- PROCEDURE SUMMARY: Binding to KRAS by surface plasmon resonance (SPR), dissociation constant KD
- ASSAY CONTEXT: Single Cycle Kinetics
pKd: −log10 of the molar value.
Property: pKd; scope: individual compounds

{"columns": ["COMPOUND", "pKd"],
 "data": [
  ["CC[C@H](C)[C@@H]1NC(=O)[C@H](CC(C)C)N(C)C(=O)C[C@@H](C(=O)N2CCOCC2)N(C)C(=O)[C@H](C2CCCC2)N(C)C(=O)C2(CCC2)NC(=O)[C@@H]2[C@@H](OCC3CCCC3)CCN2C(=O)[C@H](CCc2cc(F)c(C(F)(F)F)c(F)c2)NC(=O)CN(C)C(=O)[C@H](Cc2ccc(C(F)(F)F)cc2)N2CCCCC[C@@H](C2=O)N(C)C(=O)CN(C)C1=O", 8.43],
  ["CCC[C@H]1C(=O)N[C@@H]([C@@H](C)CC)C(=O)N2CCCC[C@H]2C(=O)N(C)[C@H]2C/C=C\\CCN(C2=O)[C@@H](Cc2ccc(C(F)(F)F)cc2)C(=O)N(C)CC(=O)N[C@@H](CCc2ccc(C(F)(F)F)c(Cl)c2)C(=O)N2C[C@H](OCC)C[C@H]2C(=O)N(C)C2(CCC2)C(=O)N(C)[C@@H](C2CCCC2)C(=O)N(C)[C@H](C(=O)N(C)C)CC(=O)N1C", 9.02],
  ["CCC[C@H]1C(=O)N[C@@H](C2CCCC2)C(=O)N(C)CC(=O)N(C)[C@H]2C/C=C\\CCN(C2=O)[C@@H](Cc2ccc(C)cc2)C(=O)N(C)CC(=O)N[C@@H](CCc2ccc(C(F)(F)F)c(Cl)c2)C(=O)N2CC3(CC3)C[C@H]2C(=O)NC2(CCC2)C(=O)N(C)[C@@H]([C@@H](C)CC)C(=O)N(C)[C@H](C(=O)N(C)C)CC(=O)N1C", 9.12],
  ["CCO[C@@H]1C[C@H]2C(=O)OC3(CCC3)C(=O)N(C)[C@@H](C3CCCC3)C(=O)N(C)[C@H](C(=O)N(C)C)CC(=O)N(C)[C@@H]([C@H](C)OC)C(=O)N[C@@H]([C@@H](C)CC)C(=O)N(C)CC(=O)N(C)[C@H]3C/C=C\\CCN(C3=O)[C@@H](Cc3ccc(C)cc3)C(=O)N(C)CC(=O)N[C@@H](CCc3ccc(C(F)(F)F)c(OC)c3)C(=O)N2C1", 9.55],
  ["C#CCN1CC(=O)N(C)[C@H]2C/C=C\\CCN(C2=O)[C@@H](Cc2ccc(C(F)F)cc2)C(=O)N(C)CC(=O)N[C@@H](CCc2ccc(C(F)(F)F)cc2Cl)C(=O)N2C[C@H](OC(C)C)C[C@H]2C(=O)N(C)C2(CCC2)C(=O)N(C)[C@@H](C(CC)CC)C(=O)N(C)[C@H](C(=O)N(C)C)CC(=O)N(C)[C@@H](CC(C)C)C(=O)N[C@@H]([C@@H](C)CC)C1=O", 9.14],
  ["CCO[C@@H]1C[C@H]2C(=O)OC3(CCC3)C(=O)N(C)[C@@H](C3CCCC3)C(=O)N(C)[C@H](C(=O)N(C)C)CC(=O)N(C)[C@@H](CC(C)C)C(=O)N[C@@H]([C@@H](C)CC)C(=O)N(C3CC3)CC(=O)N(C)[C@H]3C/C=C\\CCN(C3=O)[C@@H](Cc3ccc(C)cc3)C(=O)N(C)CC(=O)N[C@@H](CCc3ccc(C(F)(F)F)c(OC)c3)C(=O)N2C1", 8.96],
  ["CCCO[C@@H]1C[C@H]2C(=O)NC3(CC(C)(C)C3)C(=O)N(C)[C@@H](C3CCCC3)C(=O)N(C)[C@H](C(=O)N(C)CC)CC(=O)N(C)[C@@H](COCC)C(=O)N[C@@H]([C@@H](C)CC)C(=O)N(C3CC3)CC(=O)N(C)[C@H]3C/C=C\\CCN(C3=O)[C@@H](Cc3ccc(C(F)(F)F)cc3)C(=O)N(C)CC(=O)N[C@@H](CCc3ccc(C(F)(F)F)c(OC)c3)C(=O)N2C1", 9.14],
  ["CCC[C@H]1C(=O)N[C@@H](C2CCCC2)C(=O)N(C)CC(=O)N(C)[C@H]2C/C=C\\CCN(C2=O)[C@@H](Cc2ccc(C)cc2)C(=O)N(C)CC(=O)N[C@@H](CCc2cc(F)c(C(F)(F)F)c(F)c2)C(=O)N2CC3(CC3)C[C@H]2C(=O)N(C)C2(CCC2)C(=O)N(C)[C@@H](C2CCCC2)C(=O)N(C)[C@H](C(=O)N(C)C)CC(=O)N1C", 10.28],
  ["C#CC[C@H]1C(=O)N[C@@H]([C@@H](C)CC)C(=O)N(C2CC2)CC(=O)N(C)[C@H]2C/C=C\\CCN(C2=O)[C@@H](Cc2ccc(C(F)(F)F)cc2)C(=O)N(C)CC(=O)N[C@@H](CCc2ccc(C(F)(F)F)c(OC)c2)C(=O)N2C[C@H](OCC)C[C@H]2C(=O)N(C)C2(CCC2)C(=O)N(C)[C@@H](C2CCCC2)C(=O)N(C)[C@H](C(=O)N(C)C)CC(=O)N1C", 10.01],
  ["CCCOC[C@H]1C(=O)N[C@@H](C2CCCC2)C(=O)N(CCC)CC(=O)N(C)[C@H]2C/C=C\\CCN(C2=O)[C@@H](Cc2ccc(C(F)F)cc2)C(=O)N(C)CC(=O)N[C@@H](CCc2cc(F)c(C(F)(F)F)c(F)c2)C(=O)N2C[C@H](OCC)C[C@H]2C(=O)N(C)C2(CCC2)C(=O)N(C)[C@@H](C(CC)CC)C(=O)N(C)[C@H](C(=O)N(C)C)CC(=O)N1C", 9.05],
  ["CCC[C@H]1C(=O)N[C@@H]([C@@H](C)CC)C(=O)N(C2CC2)CC(=O)N(C)[C@H]2C/C=C\\CCN(C2=O)[C@@H](Cc2ccc(C)cc2)C(=O)N(C)CC(=O)N[C@@H](CCc2ccc(C(F)(F)F)c(OC)c2)C(=O)N2C[C@H](OCC)C[C@H]2C(=O)OC2(CCC2)C(=O)N(C)[C@@H](C2CCCC2)C(=O)N(C)[C@H](C(=O)N(C)C)CC(=O)N1C", 9.25]
]}
